experiment: in vivo; conditions: Wistar Han, rat, iv
Simple rule here: half-life less than 7 min is Satisfied, otherwise Not satisfied.

compound | answerLabel
CC(=O)N[C@H]1CSCCC(=O)N2CN3CN(C2)C(=O)CCSC[C@H](NC(=O)[C@@H](CC(=O)O)NC(=O)[C@H](CCC(=O)O)NC(=O)[C@H](CC(C)C)NC(=O)[C@H](Cc2c[nH]c4ccccc24)NC(=O)[C@@H](CCC(N)=O)NC1=O)C(=O)N[C@@H](Cc1c[nH]c2ccccc12)C(=O)N[C@@H](CCCNC(=N)N)C(=O)NCC(=O)N[C@@H](Cc1ccc(F)cc1)C(=O)N[C@H](C(=O)O)CSCCC3=O | Satisfied
CC(=O)N[C@H]1CSCCC(=O)N2CN3CN(C2)C(=O)CCSC[C@H](NC(=O)[C@H](CC(=O)O)NC(=O)[C@H](CCC(N)=O)NC(=O)[C@H](CC(C)(C)C)NC(=O)[C@H](Cc2cn(C)c4ccccc24)NC(=O)[C@H](CCC(N)=O)NC1=O)C(=O)N[C@@H](Cc1cn(C)c2ccccc12)C(=O)N[C@@H](CCCNC(=N)N(C)C)C(=O)NCC(=O)N[C@@H](Cc1ccc(F)c(Cl)c1)C(=O)N[C@H](C(N)=O)CSCCC3=O | Not satisfied
CC(=O)N[C@H]1CSCCC(=O)N2CN3CN(C2)C(=O)CCSC[C@H](NC(=O)[C@H](CC(=O)O)NC(=O)[C@H](CCC(N)=O)NC(=O)[C@H](CC(C)(C)C)NC(=O)[C@H](Cc2cccc4ccccc24)NC(=O)[C@H](C)N(C)C1=O)C(=O)N[C@@H](Cc1cn(C)c2ccccc12)C(=O)N[C@@H](CCCNC(=N)N(C)C)C(=O)NCC(=O)N[C@@H](Cc1ccc(F)cc1)C(=O)N[C@H](C(=O)N[C@@H](C)C(N)=O)CSCCC3=O | Not satisfied
CC(=O)N[C@H]1CSCCC(=O)N2CN3CN(C2)C(=O)CCSC[C@H](NC(=O)[C@H](CC(=O)O)NC(=O)[C@H](CCC(=O)O)NC(=O)[C@H](CC(C)(C)C)NC(=O)C(Cc2cn(C)c4ccccc24)NC(=O)[C@H](CCC(N)=O)NC1=O)C(=O)N[C@@H](Cc1cn(C)c2ccccc12)C(=O)N[C@@H](CCCNC(=N)N(C)C)C(=O)NCC(=O)N[C@@H](Cc1ccc(F)cc1)C(=O)N[C@H](C(N)=O)CSCCC3=O (stereo partly specified) | Not satisfied
CC(=O)N[C@H]1CSCCC(=O)N2CN3CN(C2)C(=O)CCSC[C@H](NC(=O)[C@H](CC(N)=O)NC(=O)[C@H](CCC(=O)O)NC(=O)[C@H](CC(C)C)NC(=O)[C@H](Cc2c[nH]c4ccccc24)NC(=O)[C@H](Cc2c[nH]cn2)NC1=O)C(=O)N[C@@H](Cc1c[nH]c2ccccc12)C(=O)N[C@@H](CCCNC(=N)N)C(=O)NCC(=O)N[C@@H](Cc1ccccc1)C(=O)N[C@H](C(N)=O)CSCCC3=O | Not satisfied
